System: ASPC1
Assay: MTT growth inhibition, pancreatic cancer cell line ASPC1
Type: cell-based
Details: Homo sapiens, 96-hours treatment, average of three independent experiments
In this section we review reported IC50 values for a set of compounds.

IC50 recorded for this compound, `Nc1ccccc1C(=O)NC(=O)Nc1ccc(Sc2ncccn2)cc1` , is 6 µM

Sample `N=C(NC(=O)c1ccccc1)Oc1ccc(Sc2ncc(Br)cn2)cc1` ; IC50 observed: > 10 µM

Consider O=C(NC(=O)c1ccccc1[N+](=O)[O-])Nc1ccc([S+]([O-])c2ncc(Br)cn2)cc1 (stereo not shown) . Its measured IC50 is 2.5 µM

For `O=C(NC(=S)Nc1ccc(Sc2ncc(Br)cn2)cc1)c1ccccc1` the compound record lists IC50 as 10 µM
